FYI, the data here is from patent US20090311237A1.

experiment: Phase 1 Stage 1 clinical pharmacokinetics of SC ZA co-administered with rHuPH20; assay type: in vivo, human; details: human, serum, sc, […], AUC (0-48 h), Subj 11; ZA […] SC; inf 0.554 hr; PH20 23928 U
VALUE_TYPE: AUC(0-t) (ng·h/mL)
Write the number in ng·h/mL without appending the unit.

// query Fill in the blank: the reported AUC(0-t) of O=P(O)(O)C(O)(Cn1ccnc1)P(=O)(O)O is ____.
// result 29.9

* * *

assay: Phase 1 Stage 1 clinical pharmacokinetics of SC ZA co-administered with rHuPH20; format: in vivo, human; details: human, serum, sc, […], Subj 51; ZA […] SC; inf 0.251 hr; PH20 6024 U; read-out: Tmax
VALUE_TYPE: Tmax (min)
Give the value, in units of min, as a plain number.

// query Given O=P(O)(O)C(O)(Cn1ccnc1)P(=O)(O)O , state its recorded Tmax.
// result 31.2

* * *

Assay: Pharmacokinetics of ZA in pig serum after IV or SC infusion with or without rHuPH20 (LC-MS-MS, non-compartmental analysis)
Type: in vivo
Details: female, Yorkshire, pig, serum, sc, […], pig 59; SC ZA […], 100 mL over 16 min, no rHuPH20; read-out: Vz/F
Description: A pharmacokinetic study of zoledronic acid (ZA) co-administered with rHuPH20 in female Yorkshire swines was conducted. […] Serum concentration of ZA was determined using a qualified LC-MS-MS assay after derivatization with diazomethane (Zhu, L S et al. (2006) Rapid Commun. Mass Spectrom. 20: 3421-3426; “Qualification Data of An LC-MS/MS Method for the Determination of Zoledronate in Porcine Serum”, MDS Pharma Services Study No. AA43671-01, Report Date 14 Sep. 2007). […]
VALUE_TYPE: Vd/F (L/kg)
Only the number, expressed in L/kg, is required.

// query Which Vd/F reading was recorded for the compound O=P(O)(O)C(O)(Cn1ccnc1)P(=O)(O)O ?
// result 0.76

* * *

assay: Phase 1 Stage 1 clinical pharmacokinetics of SC ZA co-administered with rHuPH20; type: in vivo, human; settings: human, serum, sc, serum; ZA 1 mg SC infusion + 24000 Units rHuPH20; 10 min post infusion; n=3; read-out: Mean Conc.
VALUE_TYPE: concentration at 10 min (ng/mL)
Please give a number only; it is taken to be in ng/mL.

// query Please report the recorded concentration at 10 min for O=P(O)(O)C(O)(Cn1ccnc1)P(=O)(O)O [ZA] .
// result 27.2

* * *

experiment: Phase 1 Stage 1 clinical pharmacokinetics of SC ZA co-administered with rHuPH20; assay type: in vivo, human; conditions: human, serum, sc, serum; ZA 0.5 mg SC infusion + 24000 Units rHuPH20; 0 h post infusion; n=3; read-out: Mean Conc.
VALUE_TYPE: concentration at 0 h (ng/mL)
Reply numerically in ng/mL, unit not repeated.

// query Please look up its concentration at 0 h: O=P(O)(O)C(O)(Cn1ccnc1)P(=O)(O)O
// result 11.8

* * *

experiment: Phase 1 Stage 1 clinical pharmacokinetics of SC ZA co-administered with rHuPH20; format: in vivo, human; conditions: human, serum, sc, serum; ZA 2 mg SC infusion + 24000 Units rHuPH20; 10 min post infusion; individual subjects; read-out: Zoledronic Acid Concentration
VALUE_TYPE: concentration at 10 min
Please make sure the unit comes right after the number.

// query For the molecule O=P(O)(O)C(O)(Cn1ccnc1)P(=O)(O)O , what concentration at 10 min is on record?
// result 52.5 ng/mL
